test system: nude mice, LOX melanoma ip, survival T/C; experiment: NCI In Vivo Anticancer Drug Screen. Data for tumor model Human Amelanotic Melanoma (LOX) (intraperitoneal) in NU/NU BALB/C (nude) mice; details: endpoint: median survival time; dose: 300.0 mg/kg/injection; schedule: Q04DX003 (ip); vehicle: saline
Toxic doses and inconclusive results are not listed. The calls were made as follows: active = survival T/C of 150% or more; inactive = T/C below 125% in these data.
Just give me one of these, please: 1 (yes) (active), 0 (no) (inactive)

Qu. Please state the recorded outcome for this molecule: CC#CCOCC(O)CCl (centres undefined)
Ans. 0 (no)

Qu. Record lookup: outcome of this test for OCC(O)C(O)C(O)C(O)CO (centres undefined) ?
Ans. 0 (no)

Qu. Short answer needed: outcome of this test for "Nc1ccn([C@@H](C=O)C[C@@H](C=O)CO)c(=O)n1" ?
Ans. 0 (no)

Qu. What call does the record list for "O=C(Oc1ccccc1)c1cc(O)c(O)c(O)c1" ?
Ans. 0 (no)

Qu. Lab log entry: "CN(C)CCC(=O)C(=Cc1ccc(O)cc1)C(=O)CCN(C)C" — outcome as called in the assay?
Ans. 0 (no)

Qu. Which outcome did this test record for the molecule O=C(O)C1CC(O)CN1 (centres undefined) ?
Ans. 0 (no)

Qu. Just curious, what result did NC(CCC(=O)NC(CS)C(=O)NCC(=O)O)C(=O)O (centres undefined) get here?
Ans. 0 (no)

Qu. What classification did "CC(C)NC(=O)OCc1c(COC(=O)NC(C)C)c(-c2ccc(Cl)c(Cl)c2)n2c1CCC2" end up with in this test?
Ans. 1 (yes)

Qu. Tell me the recorded outcome of this test for "COc1ccc2oc(-c3ccc(Cl)cc3)c(N3CCN(C)CC3)c2c1" .
Ans. 0 (no)

----------
test system: nude mice, LOX melanoma ip, survival T/C; test: NCI In Vivo Anticancer Drug Screen. Data for tumor model Human Amelanotic Melanoma (LOX) (intraperitoneal) in NU/NU BALB/C (nude) mice; conditions: endpoint: median survival time; dose: 150.0 mg/kg/injection; schedule: Q04DX003 (ip); vehicle: saline with Tween-80
Inconclusive results and toxic doses are left out. The calls were made as follows: active = survival T/C of 150% or more; inactive = T/C below 125% in these data.
The categories you may choose from are class 1 = active, class 0 = inactive

Qu. Give the logged outcome of this assay for the following compound: "O=C(O)Cc1cccc(=O)c(O)c1C(=O)O"
Ans. class 0

Qu. For this compound, state the assay outcome: "COc1cccc(Sc2ccc([N+](=O)[O-])c3no[n+]([O-])c23)c1"
Ans. class 0

Qu. What is the recorded call for this compound in the test? "COc1cc2c[n+](C)c3c(c2cc1OC)Cc1cc2c(cc1-3)OCO2"
Ans. class 1

Qu. How was "CC(C)NC(=O)OCc1c(COC(=O)NC(C)C)c(-c2ccc(Cl)c(Cl)c2)n2c1CCC2" classified in this test?
Ans. class 1

Qu. // outcome(item) with item = "Cc1cc(Br)c2nsnc2c1[N+](=O)[O-]"
Ans. class 0

Qu. Outcome logged for "O=c1cc(-c2ccccc2)[nH]c2c1CCCC2" in this assay:
Ans. class 0

Qu. Which outcome was assigned to "Cn1c2ccccc2c2ccc3c(c21)C(=O)C=CC3=O" in this test?
Ans. class 0

Qu. Write down the call the test reported for this compound. Item: "O=C(NNC(=O)c1cccc(C(=O)NNC(=O)c2ccc(Cl)c(Cl)c2)n1)c1ccc(Cl)c(Cl)c1"
Ans. class 0

Qu. Recorded test call requested for CN(C=O)C(C(=O)Nc1cccc2c(OC(=O)C(N(C)C=O)(N(C)C=O)N(C)C=O)c(N=Nc3ccc(S(=O)(=O)Nc4nccs4)cc3)cc(N=Nc3ccc(S(=O)(=O)Nc4nccs4)cc3)c12)(N(C)C=O)N(C)C=O (tested in a mixture with another compound)
Ans. class 0
